src = ChEMBL document CHEMBL1201862

# System: SN12C
# Protocol Description: NCI tumour cell line growth inhibition, 48 h
Calls of active or inactive are those of the source. No stated cut-off is given here; in the data, active = GI50 up to about 1.1 µM and inactive = higher.
Please go through the items and note down their GI50.

CCOP(=O)(OCC)c1c(C(=O)OC)cc(=O)[nH]c1-c1ccc(C)cc1 ... 22.4 µM (inactive)
COc1cc(C2C(Cl)C(=O)N2n2cnc3ccccc3c2=O)cc(OC)c1OC (stereo not given) ... > 100 µM (inactive)
C(CCCCc1nnc(N2CCOCC2)o1)CCCc1nnc(N2CCOCC2)o1 ... > 100 µM (inactive)
CC(C)(C)O/N=C/c1cc(NC(=S)c2ccccc2)ccc1Cl ... 12.2 µM (inactive)
O=S(=O)(CCC[C@H]1[C@@H](CCOCc2ccccc2)C2CCCN1O2)c1ccccc1 (stereo not given in full) ... > 100 µM (inactive)
C1=C(c2ccccc2)C(OC2Oc3ccccc3C=C2c2ccccc2)Oc2ccccc21 (stereo not given) ... > 100 µM (inactive)
COc1ccc(/N=N/c2c(C)c(C#N)c(=S)n(C3OC(COC(C)=O)C(OC(C)=O)C(OC(C)=O)C3OC(C)=O)c2-c2ccccc2)cc1 (stereo not given) ... 7.96 µM (inactive)
Cc1csc2n(C)c(=O)c3ccccc3[n+]12 ... > 100 µM (inactive)

Give GI50 for all compounds that follow.
1. CCOC(=O)/C=C1\Nc2ccccc2-n2nnnc21
2. Cc1cc(=O)oc2cc3oc(N(C)c4ccccc4)nc(=O)c3cc12
3. CCOP(=O)(OCC)/C(=C/n1c(=S)[nH]c2ccccc21)C(=O)OC
4. OCC(O)C(O)C(C=NNc1ncnc2ccc(Br)cc12)=NNc1ncnc2ccc(Br)cc12 (stereo not given)
5. O=c1oc2c(Cl)cc(Cl)cc2cc1C1=CSC2=NCCN12

Solution:
> 100 µM (inactive)
> 100 µM (inactive)
> 100 µM (inactive)
6.84 µM (inactive)
51.8 µM (inactive)

Give GI50 for all compounds that follow.
1. COC(=O)[C@H](Cc1c[nH]c2ccccc12)NC(=O)c1ccc(CNC(=O)/C=C/c2cccc(Oc3ccccc3)c2)cc1
2. Cc1ccc(NC(=O)/C(Cc2nc3ccc([N+](=O)[O-])cc3nc2O)=N\NC(=O)C[n+]2ccccc2)c(C)c1
3. O=C1Nc2cc([N+](=O)[O-])ccc2C(=O)N2CCC[C@@H]12
4. CSc1ccc(/C=C2\CN(C)C/C(=C\c3ccc(SC)cc3)C2=O)cc1
5. COc1ccc(OC)c(/C=C(/C#N)c2ccccc2)c1
6. CCCCCCCCCCCCn1c(=O)cc(NCCCC)c2cc3c(NCCCC)cc(=O)n(CCCCCCCCCCCC)c3nc21
7. C=C(C)[C@@H]1CC[C@]2(C(=O)O)CC[C@]3(C)[C@H](CC[C@@H]4[C@@]5(C)CC(=O)C(C)(C)[C@@H]5CC[C@]43C)[C@@H]12

Solution:
["> 100 µM (inactive)", "32.1 µM (inactive)", "> 100 µM (inactive)", "23.3 µM (inactive)", "32.6 µM (inactive)", "> 100 µM (inactive)", "4.46 µM (inactive)"]
